So I've got a bunch of binders here, and I need their % cells bound values.
# system: T1, human IL-12Rβ2 expressed on cells (human, UniProt Q99665 24-862)
# T1 construct: the cell lines are described by plasmid or cDNA number only; also called hIL-12RB2; HEK293T transiently transfected with human IL-12Rβ2
# T1 sequence: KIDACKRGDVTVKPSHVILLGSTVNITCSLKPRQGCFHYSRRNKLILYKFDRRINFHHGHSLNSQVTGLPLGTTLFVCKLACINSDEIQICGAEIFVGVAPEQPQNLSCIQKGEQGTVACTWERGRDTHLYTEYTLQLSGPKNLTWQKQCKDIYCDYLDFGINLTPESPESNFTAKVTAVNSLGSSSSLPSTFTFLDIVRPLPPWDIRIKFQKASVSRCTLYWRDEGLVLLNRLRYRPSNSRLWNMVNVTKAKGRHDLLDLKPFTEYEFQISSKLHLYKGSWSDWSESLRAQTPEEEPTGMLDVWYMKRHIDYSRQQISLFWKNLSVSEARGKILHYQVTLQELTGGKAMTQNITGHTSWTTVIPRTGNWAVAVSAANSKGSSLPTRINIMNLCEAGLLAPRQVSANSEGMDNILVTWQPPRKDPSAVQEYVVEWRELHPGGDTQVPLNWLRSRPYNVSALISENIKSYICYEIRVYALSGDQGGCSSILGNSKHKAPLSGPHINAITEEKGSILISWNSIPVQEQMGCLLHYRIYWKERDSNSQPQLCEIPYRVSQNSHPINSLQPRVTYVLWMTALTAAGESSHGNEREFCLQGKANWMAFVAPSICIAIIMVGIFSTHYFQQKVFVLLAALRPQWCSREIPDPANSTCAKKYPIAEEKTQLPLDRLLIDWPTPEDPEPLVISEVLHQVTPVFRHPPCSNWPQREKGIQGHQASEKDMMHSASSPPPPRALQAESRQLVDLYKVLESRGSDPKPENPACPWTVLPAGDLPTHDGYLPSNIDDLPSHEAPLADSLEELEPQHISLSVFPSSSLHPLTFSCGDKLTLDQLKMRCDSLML
# measurement notes: flow cytometry, periplasmic extract VHH-HA on HEK293T cells transiently expressing human IL-12Rβ2
Reply with the number and its unit after it.

Entry anti-IL-12Rβ2 VHH clone 3CRHM14 (clone ID 21053) (VHH, Tested as periplasmic extract; not shown: C-terminal HA tag) VHH: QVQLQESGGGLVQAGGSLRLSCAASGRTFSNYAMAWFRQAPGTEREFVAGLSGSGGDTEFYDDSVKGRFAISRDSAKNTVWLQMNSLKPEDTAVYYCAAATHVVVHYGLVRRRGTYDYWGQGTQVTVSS : reported % cells bound = ?
35.8%

Look up % cells bound for this binder: anti-IL-12Rβ2 VHH clone 3CAHS142 (clone ID 20401) (VHH, Tested as periplasmic extract; not shown: C-terminal HA tag) VHH: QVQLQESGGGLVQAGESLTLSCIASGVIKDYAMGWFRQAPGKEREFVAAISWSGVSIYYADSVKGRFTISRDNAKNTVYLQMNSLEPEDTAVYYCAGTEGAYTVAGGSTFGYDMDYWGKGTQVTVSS
40.9%

Look up % cells bound: anti-IL-12Rβ2 VHH clone 3CAHM11 (clone ID 21050) (VHH, Tested as periplasmic extract; not shown: C-terminal HA tag) VHH: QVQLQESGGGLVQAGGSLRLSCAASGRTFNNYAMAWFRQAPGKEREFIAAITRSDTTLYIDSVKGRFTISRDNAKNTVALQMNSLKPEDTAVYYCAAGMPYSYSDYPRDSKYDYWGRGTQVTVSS
37.6%

I have this binder here, anti-IL-12Rβ2 VHH clone 3CRHM99 (clone ID 21062) (VHH, Tested as periplasmic extract; not shown: C-terminal HA tag) VHH: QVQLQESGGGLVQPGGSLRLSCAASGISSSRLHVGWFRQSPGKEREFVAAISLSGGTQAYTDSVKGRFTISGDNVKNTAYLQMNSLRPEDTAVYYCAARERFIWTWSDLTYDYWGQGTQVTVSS , and I need its recorded % cells bound.
24.4%
